This section presents binders with their documented pKi values.
target: T1, human GLP-1 receptor (human, UniProt P43220 24-463); assay: [125I]-GLP-1 competition SPA, hGLP-1R membranes
T1 construct: whole, on cells; also called hGLP-1R; hGLP1R
pKi field: float, defined as -log10 of concentration (mol/L).

Worked cases, answers included:
[[record]]
binder = "FXEGTFTSDYSIXLDKKAQXAFIEYLIEGGPSSGAPPPS (Aib2; αMeL13; K17((2-[2-(2-Amino-ethoxy)-ethoxy]-acetyl)2-(γ-Glu)-CO-(CH2)18-CO2H); Aib20; C-terminal NH2) [Example 327]"
observed_measurement = 8.68

[[record]]
binder = "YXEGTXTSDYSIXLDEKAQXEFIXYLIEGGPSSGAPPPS (Aib2; αMeF6; αMeL13; K17((2-[2-(2-Amino-ethoxy)-ethoxy]-acetyl)2-(γ-Glu)-CO-(CH2)18-CO2H); Aib20; D-Glu24; C-terminal NH2) [Example 227]"
observed_measurement = 8.70

[[record]]
binder = "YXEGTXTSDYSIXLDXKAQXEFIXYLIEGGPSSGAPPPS (Aib2; αMeF(2F)6; Nle13; Orn16; K17((2-[2-(2-Amino-ethoxy)-ethoxy]-acetyl)2-(γ-Glu)-CO-(CH2)16-CO2H); Aib20; D-Glu24; C-terminal NH2) [Example 249]"
observed_measurement = 8.63


**Query** For the binder YXEGTXTSDXSIXLDXKAQXEFIXYLIEGGPSSGAPPPS (Aib2; αMeF(2F)6; 4Pal10; αMeL13; Orn16; K17((2-[2-(2-Amino-ethoxy)-ethoxy]-acetyl)2-(γ-Glu)-CO-(CH2)16-CO2H); Aib20; D-Glu24; C-terminal NH2) [Example 232] , what pKi is on record?
**Result** 8.25

**Query** Moving on to YXEGTFTSDYSIXLDEKAQXAFIEYLIEGGPSSG (Aib2; αMeL13; K17((2-[2-(2-Amino-ethoxy)-ethoxy]-acetyl)2-(γ-Glu)-CO-(CH2)16-CO2H); Aib20; C-terminal NH2) [Example 303]
**Result** 8.43
